- System: SK-OV-3
- EXPERIMENTAL_PROTOCOL: NCI tumour cell line growth inhibition, 48 h
Active and inactive are the calls of the source. Cut-off read from the data, not from the text of the source: active = GI50 up to about 1.1 µM and inactive = higher.
MEASURED_PROPERTY: GI50

COMPOUND	DATA_VALUE
CC(C)N(C(=O)C12C3C4C5(C#N)C3C1(C#N)C5C42I)C(C)C (centres undefined)	> 100 µM (inactive)
C=C(C(=O)O[C@H]1C(=O)C2=C(C)CCC3C(=C)C(=O)O[C@@H]3C2[C@]1(C)O)C1CC[C@]2(C)CCCC(=C)[C@H]2C1 (some centres undefined)	16.9 µM (inactive)
CC(C)(C)OC(=O)N1CC(CCl)c2ccc(O)cc21 (centres undefined)	5.05 µM (inactive)
CCOc1cccc(/C=N\c2ccccc2SSc2ccccc2/N=C\c2cccc(OCC)c2O)c1O	23.2 µM (inactive)
Oc1nc2c(c(-c3ccc(Br)cc3)n1)COC/C2=C\c1ccc(Br)cc1	> 50 µM (inactive)
O=C(O)CNc1ccc(Cl)c(Cl)c1	37.8 µM (inactive)
O=C(O)CCCNS(=O)(=O)c1ccc2ccccc2c1	> 100 µM (inactive)
COc1ccc(CC(N)=O)cc1OC	> 1250 µM (inactive)
CC(=O)Oc1ccc2c(c1)c1c(=O)oc(N(C)C)nc1n2Cc1ccccc1	> 100 µM (inactive)
COc1cc2nc(-c3ccccc3F)nc(O)c2cc1OC	> 100 µM (inactive)
CC(=O)OCCOCNC(=S)N/N=C/c1ccc([N+](=O)[O-])o1	> 100 µM (inactive)
O=c1c(C(c2cccnc2)c2c(O)oc3cc(O)ccc3c2=O)c(O)oc2cc(O)ccc12	> 100 µM (inactive)
C[C@H](CCC(=O)NN)[C@H]1CC[C@H]2[C@@H]3CC[C@@H]4C[C@H](O)CC[C@]4(C)[C@H]3CC[C@]12C	> 100 µM (inactive)
C=C[C@]1(O[Si](C)(C)C)C[C@@]2(C(=O)OCC)C(O)C(=O)N3CCc4cc(OC)c(OC)cc4[C@]312 (some centres undefined)	> 100 µM (inactive)
O=c1n(-c2ccccc2)c(=O)n2n1C1CCC2CC1	> 100 µM (inactive)
O=Cn1c2ccccc2c2ccccc21	> 100 µM (inactive)
CC[C@@H]1NC(C(=O)OC)Cc2c1[nH]c1ccccc21 (some centres undefined)	> 100 µM (inactive)
CN(C)CCNC(=O)c1cccc2[nH]c(-c3ccccn3)nc12	32.6 µM (inactive)
O=C(/C=C/c1ccc(O)c(O)c1)OCCc1ccc2ccccc2c1	13.5 µM (inactive)
COc1ccc(CNc2cc(=O)n(C)c(=O)[nH]2)cc1	> 100 µM (inactive)
O=C1CC(O)c2c1csc2Br (centres undefined)	53.8 µM (inactive)
OC1(c2ccc(Cl)cc2)c2ccc(CN3CCCC3)cc2C2=NCCN21 (centres undefined)	14.2 µM (inactive)
CN(CCO)/N=N/c1n[nH]cc1C(N)=O	> 100 µM (inactive)
COC(=O)C(Cc1ccccc1)NC(=O)C(CCCNC(=N)N)NC(=O)OCc1ccccc1 (centres undefined)	> 100 µM (inactive)
N#C/N=C1\NC(Cc2ccccc2)C(=O)N1CCc1c[nH]c2ccccc12 (centres undefined)	26.3 µM (inactive)
COC(=O)[C@H]1COC(=S)N1C(=O)[C@@H](C)[C@H](O)C(C)C	> 100 µM (inactive)
CC1(C)CC(=O)C(C(c2cccc(O)c2O)C2C(=O)CC(C)(C)CC2=O)C(=O)C1	> 100 µM (inactive)
Cn1c(-c2cccs2)cc(-c2cccs2)c1-c1cccs1	> 100 µM (inactive)
CCC(c1nc2ccccc2c(=O)n1NC(=O)C(C)(C)C)C1(O)CCCCC1 (centres undefined)	> 100 µM (inactive)
CC1(c2cccc(C3CCC4(C=CC3=O)OCCO4)c2)OCCO1 (centres undefined)	30.8 µM (inactive)
COC(=O)C(Cc1cc(OC)c(OC)c(OC)c1)(NC(=O)c1ccccc1)P(=O)(OC)OC (centres undefined)	> 100 µM (inactive)
OCCCCCNc1cc(O)nc(O)n1	> 100 µM (inactive)
COc1ccc(/N=N/C(=N\c2ccccc2)c2ccc(N(CCC#N)CCC#N)cc2)cc1	> 100 µM (inactive)
Cc1ccc(S(=O)(=O)N/N=C2/CC[C@H](C(C)(C)C)C[C@@H]2C)cc1	18.4 µM (inactive)
NNC(=O)c1ccccc1NC(=O)/C(=C/c1ccccc1O)NC(=O)c1ccccc1	39.7 µM (inactive)
O=C1/C(=C2\SCC(=O)N2c2ccccc2)SC(=S)N1c1ccccc1	23.6 µM (inactive)
CCOC(=O)Nn1c(C)nnc1-c1ccccc1	61.7 µM (inactive)
CCN(CC)CCNC(=O)c1cc2cc(NC(=O)c3cc4cc(NC(=O)c5cc6cc([N+](=O)[O-])ccc6[nH]5)ccc4[nH]3)ccc2[nH]1	> 100 µM (inactive)
O=C1c2ccccc2-c2ccccc2C(=O)C1(Br)Br	19.5 µM (inactive)
